test system: S. aureus; test: Antibacterial susceptibility testing, IC90 determination with 10% human serum (STA + 10% HS); type: cell-based, Staphylococcus aureus; conditions: Staphylococcus aureus, human serum at final concentration of 10%, read-out: STA + 10% HS (361.169) IC90
Measured Parameter: IC90

>  <Molecule>
O=C1CC2CCCCN2Cc2cc(/C=C/C(=O)N3C[C@@H]4CC(c5ccccc5)=C[C@@H]4C3)cnc2N1 (stereo partly drawn) [compound 90]

>  <IC90>
< 0.21 µg/mL

$$$$

Input: Please provide the recorded IC90 for N#Cc1cc(NC(=O)c2cccnc2)ncc1/C=C/C(=O)N1CC2C=C(c3ccccc3)CC2C1 (stereo not drawn) [compound 27] , tested on S. aureus.
Output: > 29.1 µg/mL

Input: Return IC90 measured with S. aureus given this molecule: O=C(Nc1ccc(/C=C/C(=O)N2CC3C=C(c4ccccc4)CC3C2)cn1)c1cc(F)c(Cl)nc1Cl (stereo not drawn) [compound 29]
Output: > 33 µg/mL

Input: Give the reported IC90 for CC(=O)N1CCN2Cc3cc(/C=C/C(=O)N4CC5C=C(c6cccs6)CC5C4)cnc3NC(=O)C2C1 (stereo not drawn) [compound 75] (system: S. aureus).
Output: < 0.25 µg/mL

Input: Return IC90 measured with S. aureus given this molecule: COc1ccc(C(=O)Nc2ccc(/C=C/C(=O)N3CC4C=C(c5ccccc5)CC4C3)cn2)c(OC)n1 (stereo not drawn) [compound 28]
Output: > 31.3 µg/mL

Input: Look up IC90 with S. aureus for this molecule: O=C1COCc2cc(/C=C/C(=O)N3CC4C=C(c5ccncc5)CC4C3)cnc2N1 (stereo not drawn) [compound 54]
Output: 0.35 µg/mL

Input: Provide value of IC90 for this record tested with S. aureus: CN1CC(=O)Nc2ncc(/C=C/C(=O)N3CC4C=C(c5ccccc5)CC4C3)cc2C1 (stereo not drawn) [compound 50]
Output: 0.4 µg/mL

Input: Notebook entry, S. aureus assay: IC90 of Cn1nccc1C1=CC2CN(C(=O)/C=C/c3cnc4c(c3)OC(C)(C)C(=O)N4)CC2C1 (stereo not drawn) [compound 45] = ?
Output: < 0.2 µg/mL

Input: Quick check: IC90 on S. aureus, item O=C1Nc2ncc(/C=C/C(=O)N3CC4C=C(c5nccs5)CC4C3)cc2CN2CCOCC12 (stereo not drawn) [Cpd. No. 74] ?
Output: < 0.23 µg/mL

###

test system: S. aureus; test: Antibacterial susceptibility testing, IC90 determination with 10% human serum (STA + 10% HS); assay type: cell-based, Staphylococcus aureus; conditions: Staphylococcus aureus, human serum at final concentration of 10%, read-out: STA + 10% HS (361.169) IC90
Measured Parameter: IC90

>  <Compound>
CN1CC(=O)Nc2ncc(/C=C/C(=O)N3C[C@@H]4CN(c5cccnc5)C[C@@H]4C3)cc2C1

>  <Measured Target>
S. aureus

>  <Observed>
> 26.4 µg/mL

$$$$
>  <Compound>
Cc1cc(NC(=O)c2cccnc2)ncc1/C=C/C(=O)N1CC2C=C(c3ccccc3)CC2C1 (centres unmarked)

>  <Measured Target>
S. aureus

>  <Observed>
> 28.4 µg/mL

$$$$
>  <Compound>
O=C1COc2cc(/C=C/C(=O)N3CC4C=C(c5ccncc5)CC4C3)cnc2N1 (centres unmarked)

>  <Measured Target>
S. aureus

>  <Observed>
< 0.08 µg/mL

$$$$
>  <Compound>
O=C(Nc1ncc(/C=C/C(=O)N2CC3C=C(c4ccccc4)CC3C2)cc1CN1CCOCC1)c1cccnc1 (centres unmarked)

>  <Measured Target>
S. aureus

>  <Observed>
> 33.8 µg/mL

$$$$

Would you kindly look at the next entry?
Input: Consider the compound shown here: Cc1nc(N)ccc1/C=C/C(=O)N1CC2C=C(c3ccccc3)CC2C1 (centres unmarked) What is its recorded IC90?
Output: > 21.8 µg/mL
